measured.on: SARS-CoV-2 M^pro (Severe acute respiratory syndrome coronavirus 2)
experiment: biochemical
pIC50: −log10 of the molar value.
Overview of recorded pIC50 for various molecules

{"columns": ["molecule", "pIC50"],
 "data": [
  ["CN(c1nc(N2CCOCC2)nc(N2CCc3ccccc32)n1)C1CCC(NS(N)(=O)=O)CC1 (stereo not drawn)", 4.47],
  ["OC1CCN(c2nc(Nc3ccc4c(c3)CCC4)nc(N3CCC(F)(F)CC3)n2)CC1", 4.37],
  ["CN(Cc1ccc(Cl)c(Cl)c1)c1ccc(S(N)(=O)=O)cn1", 4.45]
]}

###

System: SARS-CoV-2 pseudotyped lentivirus (Alpha)
experiment: microbe, parasite or virus in culture
Type: cell-based
conditions.used: read-out: IC50 pseudoviral neutralization, Alpha
measured.attribute: IC50 (nM)

{"columns": ["input.smiles", "measured.attribute", "uom", "result"],
 "data": [
  ["C#CCN1CCC(CCNc2ccnc3ccccc23)CC1", "IC50", "nM", 2400]
]}
